Please respond with reported pIC50 for every item in the list.
# System under test: RAD51 (Homo sapiens)
# Construct: His; made in house; host or cells: Escherichia coli BL21-DE3
# Sequence (Q06609 1-339): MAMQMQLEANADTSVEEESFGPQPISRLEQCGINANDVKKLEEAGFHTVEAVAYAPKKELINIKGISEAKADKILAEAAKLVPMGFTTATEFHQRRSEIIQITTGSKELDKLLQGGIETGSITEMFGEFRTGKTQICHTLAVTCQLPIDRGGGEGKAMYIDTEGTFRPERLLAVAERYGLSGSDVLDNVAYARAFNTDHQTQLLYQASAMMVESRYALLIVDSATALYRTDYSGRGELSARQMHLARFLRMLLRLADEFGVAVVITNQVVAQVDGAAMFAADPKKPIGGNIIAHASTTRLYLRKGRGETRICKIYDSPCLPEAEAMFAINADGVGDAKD
# Protocol text: D-loop assay (RAD51-mediated D-loop formation)
# Assay type: biochemical
# Setup conditions: D-loop formation by RAD51, 1 to 100 µM of each molecule, three independent experiments; read-out: IC50 determination from D-loop data
Friendly reminder that pIC50 comes from taking -log10 of the concentration in mol/L.

Q. I would be grateful if you could share the reported pIC50 for [N-]=[N+]=Nc1ccc(C=Cc2ccc(N=[N+]=[N-])cc2S(=O)(=O)O)c(S(=O)(=O)O)c1 [DAZDS] .
A. 4.38

Q. I would be grateful if you could share the reported pIC50 for O=S(=O)(O)c1cc(N=C=S)ccc1C=Cc1ccc(N=C=S)cc1S(=O)(=O)O [DIDS] .
A. 6.05
